assay: in vitro; settings: human, hela cells, % viability
Measured Parameter: viability at 28.5 h, 10 µM
Value and unit, in that order.

Below, 5 compounds whose answers are already recorded.
[[record]]
compound = "CNS(=O)(=O)c1ccc(NC(=O)c2cc(-c3cccnc3)nc3ccc(Br)cc23)cc1"
measured_parameter = "viability at 28.5 h, 10 µM"
result = "95.5%"

[[record]]
compound = "Cc1ccc2nc(C)cc(NCCO)c2c1"
measured_parameter = "viability at 28.5 h, 10 µM"
result = "104%"

[[record]]
compound = "CC(C)(C)OC(=O)N1CCC[C@]2(CCC(=O)N2)[C@H]1c1ccc(F)cc1"
measured_parameter = "viability at 28.5 h, 10 µM"
result = "86.1%"

[[record]]
compound = "CC1CCN(Cc2c(O)ccc3occ(C(=O)c4ccccc4)c23)CC1"
measured_parameter = "viability at 28.5 h, 10 µM"
result = "89.8%"

[[record]]
compound = "O=S(=O)(Nc1cc(OC2CCNCC2)c2occc2c1)c1c(Cl)cccc1Cl [CBK074989C]"
measured_parameter = "viability at 28.5 h, 10 µM"
result = "64.3%"


# compound `Cc1nc(-c2nnc(SCc3ccc(C(F)(F)F)cc3)o2)cs1` ; its viability at 28.5 h, 10 µM = 95.1%

// field: viability at 28.5 h, 10 µM; key: `COc1ccc(-c2noc(CNC(=O)Cc3ccc(-c4ccccc4)cc3)n2)cc1` ; value = 105%

Reported viability at 28.5 h, 10 µM ( `O=C(NCc1cccc(C(F)(F)F)c1)c1ccccc1-n1cccc1` ) = 100%

# viability at 28.5 h, 10 µM (compound: `COc1ccc(CCNc2ncnc3sc4c(c23)CCCCC4)cc1OC` ) is 89.9%
